target: UniProt O14842; assay: Ca2+ mobilisation (Fura2) in Flp-In T-REx 293 cells expressing Nluc-FFA1, FFA1-Nluc or untagged FFA1; assay type: cell-based; set-up: expressed in transfected cells; settings: percentage of response to 10 μM T360; NR = No response
measurement-label: EMax (%)

Prompt: Fill in the blank: the reported EMax of COc1ccc(C(=O)N(CCNC(=O)OC(C)(C)C)c2ccccc2)c(N2CCC(COc3cccc(C(CC(=O)O)C4CC4)c3)CC2)c1.Cl (centres unmarked) is ____.
Response: 103

Prompt: Also check COc1ccc(C(=O)N2CCC(CNC(=O)OC(C)(C)C)CC2)c(N2CCC(COc3cccc(C(CC(=O)O)C4CC4)c3)CC2)c1.O=C(O)C(F)(F)F (centres unmarked)
Response: 108

Prompt: Also check `Cc1cc(OCCOCCNC(=O)CCCCCN2\C(=C/C=C/C=C/C3=[N+](C)c4ccc(S(=O)(=O)[O-])cc4C3(C)C)C(C)(C)c3ccccc32)ccc1-c1cccc(COc2ccc(CCC(=O)O)c(F)c2)c1`
Response: 87

Prompt: Also check COc1ccc(C(=O)N2CCC(CCNC(=O)OC(C)(C)C)CC2)c(N2CCC(COc3cccc(C(CC(=O)O)C4CC4)c3)CC2)c1.O=C(O)C(F)(F)F (centres unmarked)
Response: 112

Prompt: Also check `Cc1cc(OCCCNC(=O)CCCN2\C(=C/C=C/C=C/C3=[N+](C)c4ccc(S(=O)(=O)[O-])cc4C3(C)C)C(C)(C)c3ccccc32)ccc1-c1cccc(COc2ccc(CCC(=O)O)c(F)c2)c1`
Response: 73

Prompt: Also check COc1ccc(CCCC(C)(C)C)c(N2CCC(COc3cccc(C(CC(=O)O)C4CC4)c3)CC2)c1.O=C(O)C(F)(F)F (centres unmarked)
Response: 105

Prompt: Also check COc1ccc(C(=O)N(CC(C)(C)CNC(=O)OC(C)(C)C)c2ccccc2)c(N2CCC(COc3cccc(C(CC(=O)O)C4CC4)c3)CC2)c1.O=C(O)C(F)(F)F (centres unmarked)
Response: 124

Prompt: Also check COc1ccc(C(=O)N2CCN(CCNC(=O)OC(C)(C)C)CC2)c(N2CCC(COc3cccc(C(CC(=O)O)C4CC4)c3)CC2)c1.Cl (centres unmarked)
Response: 133

Prompt: Also check COc1ccc(C(=O)NCC(C)(C)CNC(=O)OC(C)(C)C)c(N2CCC(COc3cccc(C(CC(=O)O)C4CC4)c3)CC2)c1.Cl (centres unmarked)
Response: 108

Prompt: Also check COc1ccc(C(=O)N(CC(C)(C)C)c2cccc(C)n2)c(N2CCC(COc3cccc(C(CC(=O)O)C4CC4)c3)CC2)c1.O=C(O)C(F)(F)F (centres unmarked) [Cpd 6h, reference compound]
Response: 108

Prompt: Also check COc1ccc(C(=O)N(CC(C)(C)CNc2ccc([N+](=O)[O-])c3nonc23)c2cccc(C)n2)c(N2CCC(COc3cccc(C(CC(=O)O)C4CC4)c3)CC2)c1.O=C(O)C(F)(F)F (centres unmarked)
Response: 101

---

target: FFA1-Nluc (Homo sapiens, UniProt O14842); experiment: DISCo-BRET (endpoint, spectra scan, kinetics) with TUG-2591 and TUG-2597 at C terminal Nluc tagged FFA1; type: binding; parameters: expressed in transfected cells; settings: TUG-2597 after TUG-2591 pre-treatment; read-out: Kd DISCo-BRET SulfoCy5/NBD (kinetic)
Sequence (O14842 whole entry): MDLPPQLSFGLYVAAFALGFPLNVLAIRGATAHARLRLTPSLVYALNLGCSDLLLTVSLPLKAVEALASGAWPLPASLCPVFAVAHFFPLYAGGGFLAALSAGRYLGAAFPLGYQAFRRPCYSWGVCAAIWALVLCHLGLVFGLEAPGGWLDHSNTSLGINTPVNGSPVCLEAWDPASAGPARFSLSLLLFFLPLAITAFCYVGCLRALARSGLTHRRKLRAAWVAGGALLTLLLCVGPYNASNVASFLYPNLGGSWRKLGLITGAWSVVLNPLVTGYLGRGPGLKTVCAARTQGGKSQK
measurement-label: Kd (nM)
Output spec: scalar in nM, unitless text.

Prompt: Fill in the blank: the reported Kd of COc1ccc(C(=O)N(CC(C)(C)CNc2ccc([N+](=O)[O-])c3nonc23)c2cccc(C)n2)c(N2CCC(COc3cccc(C(CC(=O)O)C4CC4)c3)CC2)c1.O=C(O)C(F)(F)F (stereo not shown) is ____.
Response: 140
